Measured % Retained 60° C., listed per entry.
Tested On: T1, TRCW5 antigen (CD3δε-Fc-Avi) (biotinylated (site not stated))
T1 construct: also called recombinant CD3
T1 sequence (chain, as listed by the source mutant limits assumed): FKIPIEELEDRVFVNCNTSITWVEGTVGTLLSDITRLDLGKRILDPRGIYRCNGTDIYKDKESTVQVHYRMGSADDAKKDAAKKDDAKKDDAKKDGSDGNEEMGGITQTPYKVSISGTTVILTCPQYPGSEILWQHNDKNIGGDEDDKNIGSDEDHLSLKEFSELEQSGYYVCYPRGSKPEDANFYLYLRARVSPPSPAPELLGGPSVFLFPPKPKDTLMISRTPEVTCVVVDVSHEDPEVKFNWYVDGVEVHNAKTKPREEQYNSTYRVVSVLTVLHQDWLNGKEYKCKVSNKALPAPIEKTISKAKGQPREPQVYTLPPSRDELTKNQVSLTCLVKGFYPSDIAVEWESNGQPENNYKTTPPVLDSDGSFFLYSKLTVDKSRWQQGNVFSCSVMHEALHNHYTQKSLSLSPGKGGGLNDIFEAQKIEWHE
Protocol Details: ELISA after heat
Numeric only. Scale: %

# count of solved cases: 3
# Binder, % Retained 60° C. [%]
records = [
    ("CD3B2056 (scFv) scFv: QVQLVQSGAEVKKPGSSVKVSCKASGYTFTRSTMHWVRQAPGQGLEWIGYINPSSAYTNYNQKFQGRVTLTADKSTSTAYMELSSLRSEDTAVYYCASPQVHYDYNGFPYWGQGTLVTVSSGGSEGKSSGSGSESKSTGGSEIVLTQSPATLSASPGERVTLSCSASSSVSYMNWYQQKPGQSPRRLIYDSSKLASGVPARFSGSGSGRDYTLTISSLEPEDFAVYYCQQWSRNPPTFGGGTKVEIK", 80),
    ("CD3B2058 (scFv) scFv: QVQLVQSGAEVKKPGSSVKVSCKASGYTFTRSTMHWVKQAPGQGLEWIGYINPSSAYTNYAQKFQGRVTLTADKSTSTAYMELSSLRSEDTAVYYCASPQVHYDYNGFPYWGQGTLVTVSSGGSEGKSSGSGSESKSTGGSEIVLTQSPATLSASPGERVTLSCSASSSVSYMNWYQQKPGTSPRRWIYDSSKLASGVPARFSGSGSGRDYTLTISSLEPEDFAVYYCQQWSRNPPTFGGGTKVEIK", 110),
    ("CD3B1127 (scFv, also called Murine HL; murine Cris-7 scFv (HL)) scFv: QVQLQQSGAELARPGASVKMSCKASGYTFTRSTMHWVKQRPGQGLEWIGYINPSSAYTNYNQKFKDKATLTADKSSSTAYMQLSSLTSEDSAVYYCASPQVHYDYNGFPYWGQGTLVTVSAGGSEGKSSGSGSESKSTGGSQVVLTQSPAIMSAFPGEKVTMTCSASSSVSYMNWYQQKSGTSPKRWIYDSSKLASGVPARFSGSGSGTSYSLTISSMETEDAATYYCQQWSRNPPTFGGGTKLQIT", 0),
]

We next turn to a different binder, shown below.
### Prompt Returns the measured % Retained 60° C. for the input binder. Input: CD3B2030 N106Q (scFv, also called CD3B2030 NtoQ) scFv: QVQLVQSGAEVKKPGSSVKVSCKASGYTFTRSTMHWVKQAPGQGLEWIGYINPSSAYTNYNQKFQGRVTLTADKSTSTAYMELSSLRSEDTAVYYCASPQVHYDYQGFPYWGQGTLVTVSSGGSEGKSSGSGSESKSTGGSEIVLTQSPATLSASPGERVTLSCSASSSVSYMNWYQQKPGQAPRRWIYDSSKLASGVPARFSGSGSGRDYTLTISSLEPEDFAVYYCQQWSRNPPTFGGGTKVEIK
### Response 105
